Biological target: PRKG1alpha (Homo sapiens (Human), UniProt Q13976)
Sequence (Q13976 whole entry): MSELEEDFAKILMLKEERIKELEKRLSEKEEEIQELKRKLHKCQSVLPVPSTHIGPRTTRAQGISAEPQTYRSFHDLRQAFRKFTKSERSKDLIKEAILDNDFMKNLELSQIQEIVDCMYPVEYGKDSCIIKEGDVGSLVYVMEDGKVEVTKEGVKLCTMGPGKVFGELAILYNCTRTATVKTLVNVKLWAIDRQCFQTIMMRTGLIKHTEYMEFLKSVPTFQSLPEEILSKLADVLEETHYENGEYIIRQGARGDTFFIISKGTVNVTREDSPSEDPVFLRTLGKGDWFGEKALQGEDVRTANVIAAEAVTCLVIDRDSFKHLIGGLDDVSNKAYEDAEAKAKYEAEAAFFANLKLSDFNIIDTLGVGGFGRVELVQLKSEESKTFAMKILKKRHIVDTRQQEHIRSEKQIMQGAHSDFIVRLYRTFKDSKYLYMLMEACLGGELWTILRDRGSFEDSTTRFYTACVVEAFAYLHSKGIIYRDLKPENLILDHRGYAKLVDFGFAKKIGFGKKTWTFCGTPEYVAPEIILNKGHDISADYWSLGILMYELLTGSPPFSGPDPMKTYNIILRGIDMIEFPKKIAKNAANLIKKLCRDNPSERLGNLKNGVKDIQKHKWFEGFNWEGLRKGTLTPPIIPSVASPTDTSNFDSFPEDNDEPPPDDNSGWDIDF
Test: KinaseProfiler off-target kinase profiling
Format: biochemical
Conditions: 10 μM, ATP near Km
Endpoint Label: Avg. POC (POC)

INSERT INTO results (compound, endpoint_label, recorded_result) VALUES
  ('Cc1c(-c2ccc(=O)n(C)c2)nn(-c2ccccc2)c1NC(=O)NC1CN(CC(F)(F)F)Cc2ccccc21 (stereo not shown)', 'Avg. POC', 98),
  ('Cc1c(-c2cnn(C)c2)nn(-c2ccccc2)c1NC(=O)NC1CCOc2cc(F)ccc21 (stereo not shown)', 'Avg. POC', 89.5);

1: Cc1c(-c2cnn(C)c2)nn(-c2ccccc2)c1NC(=O)N[C@H]1CCCc2ccccc21
2: COCc1ccc2c(c1)C(NC(=O)Nc1c(C)c(-c3cnn(C)c3)nn1-c1ccccc1)COC2 (stereo not shown)
Request: Hi, I'm comparing two records. Which one has the lower Avg. POC, 1 or 2 ? Let me know the label of the one you choose.
Result: 2

====

Molecular target: SRPK1 (Homo sapiens (Human), UniProt Q96SB4)
Sequence (Q96SB4 whole entry): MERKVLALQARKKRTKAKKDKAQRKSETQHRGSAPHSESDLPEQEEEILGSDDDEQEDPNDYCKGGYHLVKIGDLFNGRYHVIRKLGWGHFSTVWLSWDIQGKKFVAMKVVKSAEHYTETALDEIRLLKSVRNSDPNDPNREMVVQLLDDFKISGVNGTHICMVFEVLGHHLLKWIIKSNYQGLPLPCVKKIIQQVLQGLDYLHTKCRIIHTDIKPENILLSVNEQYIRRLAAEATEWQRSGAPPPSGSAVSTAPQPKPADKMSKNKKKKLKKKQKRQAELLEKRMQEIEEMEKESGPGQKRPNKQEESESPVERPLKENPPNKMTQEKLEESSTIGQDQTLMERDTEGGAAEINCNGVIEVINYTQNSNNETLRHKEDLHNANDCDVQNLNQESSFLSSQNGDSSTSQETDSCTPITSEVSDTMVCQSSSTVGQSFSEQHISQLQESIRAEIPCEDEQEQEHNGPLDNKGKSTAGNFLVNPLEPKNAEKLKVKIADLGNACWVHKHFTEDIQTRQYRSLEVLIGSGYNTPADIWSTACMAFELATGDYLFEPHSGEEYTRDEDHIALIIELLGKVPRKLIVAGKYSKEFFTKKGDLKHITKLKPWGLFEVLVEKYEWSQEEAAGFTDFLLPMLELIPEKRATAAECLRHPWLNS
Assay: KinaseProfiler off-target kinase profiling
Assay type: biochemical
Settings: 10 μM, ATP near Km
Endpoint Label: Avg. POC (POC)

INSERT INTO results (compound, target_system, recorded_result) VALUES
  ('Cc1c(-c2cnn(C)c2)nn(-c2ccccc2)c1NC(=O)N[C@H]1CCCc2ccccc21', 'SRPK1 (Homo sapiens (Human), UniProt Q96SB4)', 122),
  ('Cc1c(-c2ccc(=O)n(C)c2)nn(-c2ccccc2)c1NC(=O)NC1CN(CC(F)(F)F)Cc2ccccc21 (stereo not shown)', 'SRPK1 (Homo sapiens (Human), UniProt Q96SB4)', 102.5),
  ('COCc1ccc2c(c1)C(NC(=O)Nc1c(C)c(-c3cnn(C)c3)nn1-c1ccccc1)COC2 (stereo not shown)', 'SRPK1 (Homo sapiens (Human), UniProt Q96SB4)', 99.5),
  ('Cc1c(-c2cnn(C)c2)nn(-c2ccccc2)c1NC(=O)NC1CCOc2cc(F)ccc21 (stereo not shown)', 'SRPK1 (Homo sapiens (Human), UniProt Q96SB4)', 97.5);

====

Molecular target: ULK3 (Homo sapiens (Human), UniProt Q6PHR2)
Sequence (Q6PHR2 whole entry): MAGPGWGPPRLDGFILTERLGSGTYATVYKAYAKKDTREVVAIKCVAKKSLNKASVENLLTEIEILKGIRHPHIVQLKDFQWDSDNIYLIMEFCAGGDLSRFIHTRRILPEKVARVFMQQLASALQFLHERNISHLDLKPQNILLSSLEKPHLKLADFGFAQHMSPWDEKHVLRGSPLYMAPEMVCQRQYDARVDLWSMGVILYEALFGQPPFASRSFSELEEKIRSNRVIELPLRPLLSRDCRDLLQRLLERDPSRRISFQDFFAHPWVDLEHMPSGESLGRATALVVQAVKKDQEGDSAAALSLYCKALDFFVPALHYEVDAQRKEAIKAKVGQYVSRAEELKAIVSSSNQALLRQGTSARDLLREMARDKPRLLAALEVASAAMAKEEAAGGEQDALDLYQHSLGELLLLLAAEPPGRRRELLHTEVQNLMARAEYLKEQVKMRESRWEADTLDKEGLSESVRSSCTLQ
Test: KinaseProfiler off-target kinase profiling
Type: biochemical
Conditions: 10 μM, ATP near Km
Endpoint Label: Avg. POC (POC)

INSERT INTO results (compound, recorded_result) VALUES
  ('Cc1c(-c2cnn(C)c2)nn(-c2ccccc2)c1NC(=O)N[C@H]1CCCc2ccccc21 [Example 2]', 105),
  ('Cc1c(-c2cnn(C)c2)nn(-c2ccccc2)c1NC(=O)NC1CCOc2cc(F)ccc21 (stereo not shown) [Example 12]', 89.5),
  ('COCc1ccc2c(c1)C(NC(=O)Nc1c(C)c(-c3cnn(C)c3)nn1-c1ccccc1)COC2 (stereo not shown) [Example 32]', 92),
  ('Cc1c(-c2ccc(=O)n(C)c2)nn(-c2ccccc2)c1NC(=O)NC1CN(CC(F)(F)F)Cc2ccccc21 (stereo not shown) [Example 26]', 92.5);

====

Target: CDK6/cyclinD3 (Homo sapiens (Human), UniProt Q00534)
Sequence (Q00534 whole entry): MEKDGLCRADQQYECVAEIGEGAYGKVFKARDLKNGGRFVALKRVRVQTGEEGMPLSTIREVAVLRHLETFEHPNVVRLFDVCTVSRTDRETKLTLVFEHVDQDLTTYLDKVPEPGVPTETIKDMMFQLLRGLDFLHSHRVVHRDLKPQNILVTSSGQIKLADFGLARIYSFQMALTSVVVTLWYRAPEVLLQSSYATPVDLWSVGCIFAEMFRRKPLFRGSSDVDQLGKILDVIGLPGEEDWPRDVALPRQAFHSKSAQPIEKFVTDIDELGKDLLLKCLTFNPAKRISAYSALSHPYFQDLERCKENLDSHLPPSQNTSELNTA
Sequence (P30281 whole entry partner): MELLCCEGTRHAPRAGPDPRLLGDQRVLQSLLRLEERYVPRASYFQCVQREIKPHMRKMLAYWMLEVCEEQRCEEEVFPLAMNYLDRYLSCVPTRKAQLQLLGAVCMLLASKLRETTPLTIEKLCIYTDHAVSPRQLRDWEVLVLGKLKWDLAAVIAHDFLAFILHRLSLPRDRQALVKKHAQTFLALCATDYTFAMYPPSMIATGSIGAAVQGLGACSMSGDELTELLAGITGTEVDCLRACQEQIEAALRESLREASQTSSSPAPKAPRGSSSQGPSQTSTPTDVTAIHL
Test: KinaseProfiler off-target kinase profiling
Type: biochemical
Details: 10 μM, ATP near Km
Endpoint Label: Avg. POC (POC)

INSERT INTO results (compound, result_unit, recorded_result) VALUES
  ('Cc1c(-c2cnn(C)c2)nn(-c2ccccc2)c1NC(=O)N[C@H]1CCCc2ccccc21', 'POC', 100),
  ('COCc1ccc2c(c1)C(NC(=O)Nc1c(C)c(-c3cnn(C)c3)nn1-c1ccccc1)COC2 (stereo not shown)', 'POC', 108),
  ('Cc1c(-c2cnn(C)c2)nn(-c2ccccc2)c1NC(=O)NC1CCOc2cc(F)ccc21 (stereo not shown)', 'POC', 103),
  ('Cc1c(-c2ccc(=O)n(C)c2)nn(-c2ccccc2)c1NC(=O)NC1CN(CC(F)(F)F)Cc2ccccc21 (stereo not shown)', 'POC', 104.5);

====

Target: PTK5 (Homo sapiens (Human))
Sequence (P42685 whole entry): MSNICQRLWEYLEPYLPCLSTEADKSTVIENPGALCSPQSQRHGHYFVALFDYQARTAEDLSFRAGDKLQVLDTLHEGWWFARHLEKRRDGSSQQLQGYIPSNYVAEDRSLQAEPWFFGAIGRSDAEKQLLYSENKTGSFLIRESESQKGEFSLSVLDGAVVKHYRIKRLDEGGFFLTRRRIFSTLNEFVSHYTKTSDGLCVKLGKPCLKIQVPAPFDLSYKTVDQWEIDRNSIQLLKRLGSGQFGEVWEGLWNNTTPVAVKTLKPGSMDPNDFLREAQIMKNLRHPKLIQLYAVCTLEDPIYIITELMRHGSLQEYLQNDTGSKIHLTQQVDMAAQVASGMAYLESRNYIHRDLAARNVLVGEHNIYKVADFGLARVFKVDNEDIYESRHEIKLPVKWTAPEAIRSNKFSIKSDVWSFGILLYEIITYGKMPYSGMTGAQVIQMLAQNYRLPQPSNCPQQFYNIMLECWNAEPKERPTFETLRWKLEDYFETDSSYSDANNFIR
Experiment: KinaseProfiler off-target kinase profiling
Type: biochemical
Details: 10 μM, ATP near Km
Endpoint Label: Avg. POC (POC)

INSERT INTO measurements (compound, endpoint_label, result_unit, recorded_result) VALUES
  ('Cc1c(-c2ccc(=O)n(C)c2)nn(-c2ccccc2)c1NC(=O)NC1CN(CC(F)(F)F)Cc2ccccc21 (stereo not shown)', 'Avg. POC', 'POC', 110),
  ('Cc1c(-c2cnn(C)c2)nn(-c2ccccc2)c1NC(=O)N[C@H]1CCCc2ccccc21', 'Avg. POC', 'POC', 122),
  ('Cc1c(-c2cnn(C)c2)nn(-c2ccccc2)c1NC(=O)NC1CCOc2cc(F)ccc21 (stereo not shown)', 'Avg. POC', 'POC', 100),
  ('COCc1ccc2c(c1)C(NC(=O)Nc1c(C)c(-c3cnn(C)c3)nn1-c1ccccc1)COC2 (stereo not shown)', 'Avg. POC', 'POC', 104);

====

Target: PKCgamma (Homo sapiens (Human))
Test: KinaseProfiler off-target kinase profiling
Assay type: biochemical
Conditions: 10 μM, ATP near Km
Endpoint Label: Avg. POC (POC)

INSERT INTO assay_data (compound, target_system, recorded_result) VALUES
  ('Cc1c(-c2cnn(C)c2)nn(-c2ccccc2)c1NC(=O)NC1CCOc2cc(F)ccc21 (stereo not shown) [Example 12]', 'PKCgamma (Homo sapiens (Human))', 104.5),
  ('Cc1c(-c2ccc(=O)n(C)c2)nn(-c2ccccc2)c1NC(=O)NC1CN(CC(F)(F)F)Cc2ccccc21 (stereo not shown) [Example 26]', 'PKCgamma (Homo sapiens (Human))', 99),
  ('Cc1c(-c2cnn(C)c2)nn(-c2ccccc2)c1NC(=O)N[C@H]1CCCc2ccccc21 [Example 2]', 'PKCgamma (Homo sapiens (Human))', 102),
  ('COCc1ccc2c(c1)C(NC(=O)Nc1c(C)c(-c3cnn(C)c3)nn1-c1ccccc1)COC2 (stereo not shown) [Example 32]', 'PKCgamma (Homo sapiens (Human))', 104);

====

Biological target: MELK (Homo sapiens (Human), UniProt Q14680)
Sequence (Q14680 whole entry): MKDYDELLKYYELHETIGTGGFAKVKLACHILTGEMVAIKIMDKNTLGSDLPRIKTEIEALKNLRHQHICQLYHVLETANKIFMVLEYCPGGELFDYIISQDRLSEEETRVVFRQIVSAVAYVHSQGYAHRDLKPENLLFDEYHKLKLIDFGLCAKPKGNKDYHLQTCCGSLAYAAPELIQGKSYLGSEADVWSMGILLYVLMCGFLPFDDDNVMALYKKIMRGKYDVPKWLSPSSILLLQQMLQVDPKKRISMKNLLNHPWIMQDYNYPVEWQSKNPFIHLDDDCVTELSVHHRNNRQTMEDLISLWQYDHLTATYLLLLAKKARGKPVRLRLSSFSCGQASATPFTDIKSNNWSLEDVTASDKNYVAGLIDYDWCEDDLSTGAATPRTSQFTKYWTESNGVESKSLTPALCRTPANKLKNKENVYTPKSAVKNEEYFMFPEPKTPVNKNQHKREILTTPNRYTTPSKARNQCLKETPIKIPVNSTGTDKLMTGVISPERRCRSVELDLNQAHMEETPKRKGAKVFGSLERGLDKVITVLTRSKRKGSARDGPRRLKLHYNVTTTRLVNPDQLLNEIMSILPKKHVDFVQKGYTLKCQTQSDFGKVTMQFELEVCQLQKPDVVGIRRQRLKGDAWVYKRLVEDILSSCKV
Assay: KinaseProfiler off-target kinase profiling
Assay type: biochemical
Conditions: 10 μM, ATP near Km
Endpoint Label: Avg. POC (POC)

Worked cases, answers included:
INSERT INTO results (molecule, endpoint_label, recorded_result) VALUES
  ('Cc1c(-c2cnn(C)c2)nn(-c2ccccc2)c1NC(=O)NC1CCOc2cc(F)ccc21 (stereo not shown)', 'Avg. POC', 67),
  ('COCc1ccc2c(c1)C(NC(=O)Nc1c(C)c(-c3cnn(C)c3)nn1-c1ccccc1)COC2 (stereo not shown)', 'Avg. POC', 98);

I: Cc1c(-c2cnn(C)c2)nn(-c2ccccc2)c1NC(=O)N[C@H]1CCCc2ccccc21
II: Cc1c(-c2ccc(=O)n(C)c2)nn(-c2ccccc2)c1NC(=O)NC1CN(CC(F)(F)F)Cc2ccccc21 (stereo not shown)
Request: Hi, I'm comparing two records. Which one has the lower Avg. POC, I or II ? Let me know the label of the one you choose.
Result: II

====

Target: c-RAF (Homo sapiens (Human), UniProt P04049, Y340D/Y341D)
Experiment: KinaseProfiler off-target kinase profiling
Type: biochemical
Conditions: 10 μM, ATP near Km
Endpoint Label: Avg. POC (POC)

INSERT INTO results (molecule, recorded_result) VALUES
  ('Cc1c(-c2cnn(C)c2)nn(-c2ccccc2)c1NC(=O)NC1CCOc2cc(F)ccc21 (stereo not shown)', 96),
  ('Cc1c(-c2cnn(C)c2)nn(-c2ccccc2)c1NC(=O)N[C@H]1CCCc2ccccc21', 103.5),
  ('Cc1c(-c2ccc(=O)n(C)c2)nn(-c2ccccc2)c1NC(=O)NC1CN(CC(F)(F)F)Cc2ccccc21 (stereo not shown)', 106.5),
  ('COCc1ccc2c(c1)C(NC(=O)Nc1c(C)c(-c3cnn(C)c3)nn1-c1ccccc1)COC2 (stereo not shown)', 101.5);

====

Biological target: NEK11 (Homo sapiens (Human), UniProt Q8NG66)
Sequence (Q8NG66 whole entry): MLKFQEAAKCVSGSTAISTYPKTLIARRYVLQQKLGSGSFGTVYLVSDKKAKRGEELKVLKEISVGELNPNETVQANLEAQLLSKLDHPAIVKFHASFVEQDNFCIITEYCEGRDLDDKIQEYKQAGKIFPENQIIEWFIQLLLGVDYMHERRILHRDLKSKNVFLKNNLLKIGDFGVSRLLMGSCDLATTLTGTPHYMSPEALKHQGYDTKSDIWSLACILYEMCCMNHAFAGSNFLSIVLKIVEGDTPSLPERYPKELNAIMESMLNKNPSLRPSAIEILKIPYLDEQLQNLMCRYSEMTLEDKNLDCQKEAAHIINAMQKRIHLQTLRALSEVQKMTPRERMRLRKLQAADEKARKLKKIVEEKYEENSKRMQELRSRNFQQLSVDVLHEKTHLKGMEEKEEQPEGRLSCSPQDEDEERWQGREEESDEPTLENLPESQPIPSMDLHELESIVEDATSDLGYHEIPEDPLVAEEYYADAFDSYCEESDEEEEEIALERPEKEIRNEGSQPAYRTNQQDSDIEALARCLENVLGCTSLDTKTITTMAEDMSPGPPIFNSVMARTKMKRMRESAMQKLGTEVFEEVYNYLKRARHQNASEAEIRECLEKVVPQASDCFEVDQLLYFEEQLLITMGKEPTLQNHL
Experiment: KinaseProfiler off-target kinase profiling
Assay type: biochemical
Conditions: 10 μM, ATP near Km
Endpoint Label: Avg. POC (POC)

INSERT INTO measurements (compound, target_system, recorded_result) VALUES
  ('COCc1ccc2c(c1)C(NC(=O)Nc1c(C)c(-c3cnn(C)c3)nn1-c1ccccc1)COC2 (stereo not shown) [Example 32]', 'NEK11 (Homo sapiens (Human), UniProt Q8NG66)', 108),
  ('Cc1c(-c2cnn(C)c2)nn(-c2ccccc2)c1NC(=O)NC1CCOc2cc(F)ccc21 (stereo not shown) [Example 12]', 'NEK11 (Homo sapiens (Human), UniProt Q8NG66)', 84.5),
  ('Cc1c(-c2cnn(C)c2)nn(-c2ccccc2)c1NC(=O)N[C@H]1CCCc2ccccc21 [Example 2]', 'NEK11 (Homo sapiens (Human), UniProt Q8NG66)', 108.5),
  ('Cc1c(-c2ccc(=O)n(C)c2)nn(-c2ccccc2)c1NC(=O)NC1CN(CC(F)(F)F)Cc2ccccc21 (stereo not shown) [Example 26]', 'NEK11 (Homo sapiens (Human), UniProt Q8NG66)', 113.5);
